- Measurement Target: Bcl-2-like protein 10 [11-204] (Homo sapiens, UniProt Q9HD36)
- Construct: 11-204
- Sequence (Q9HD36 11-204): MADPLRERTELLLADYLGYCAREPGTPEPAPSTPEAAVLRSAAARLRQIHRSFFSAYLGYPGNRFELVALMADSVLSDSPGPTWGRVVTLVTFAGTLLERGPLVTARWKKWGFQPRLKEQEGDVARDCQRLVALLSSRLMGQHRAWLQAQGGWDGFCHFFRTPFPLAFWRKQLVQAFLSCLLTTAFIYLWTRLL
- Assay Protocol: regulators of Bim-Bcl-B binding, dose response, biochemical, multiplexed, bead-based flow cytometry, human (AID 1327)
- Setup Conditions: inactive by the depositor's call
Field: label. Allowed values: met (EC50 < 30 µM) or not met (EC50 >= 30 µM).

Examples with answers:
> print(dat)
                                   compound  category.label
1  COc1ccccc1-n1c(-c2ccccc2)c[nH]c1=S [MLS001007615]         not met
2  O=C(COc1ccccc1)N1CCN(c2ncnc3c2cnn3-c2ccccc2)CC1             met
3  COc1ccc(CCNC(=O)c2ccc3nc(-c4ccco4)c(-c4ccco4)nc3c2)cc1OC         not met

[Q] For this compound, is EC50 lower than 30 µM? `O=S1(=O)N=C(N(CCO)N=Cc2ccccc2)c2ccccc21`
[A] met
